assay explanation: Pharmacokinetic study
Format: in vivo, C57BL/6 mice
assay setup: male, C57BL/6, mouse, plasma; iv 5 mg/kg
recorded endpoint: Cmax (ng/mL)
Your answer should be a plain number; it is taken to be in ng/mL.

Note Cmax for the compound shown: O=C(Nc1cc(Nc2ncccc2-c2ncnc3[nH]cnc23)ccc1F)c1cc(C(F)(F)F)cc(C(F)(F)F)c1
11400

###

Test system: KRAS and BRAF mutant cancer cells (HCT116, LS513, SW620, HT29)
assay explanation: Cell growth assay, panel of cell lines
assay setup: read-out: IC50 values, cell growth
pIC50: −log10 of the molar value.
recorded endpoint: pIC50

Note pIC50 for the molecule shown: O=C(Nc1cc(Nc2ncccc2-c2ncnc3[nH]cnc23)ccc1F)c1cc(C(F)(F)F)cc(C(F)(F)F)c1
6.20 to 6.80
